Measured pIC50 (human FGFR-3 (Homo sapiens (Human)))
Lab note — pIC50 values are minus log10 of concentrations in M.

Use the examples below as a reference point.
COc1cc(C)cc2cc(-c3cc(CN4CCCC(N(C)C)C4)n4ncnc(N)c34)sc12 (centres unmarked) = 8.02
COc1cc(C)cc2cc(-c3cc(CN4CCCN(C)CC4)n4ncnc(N)c34)sc12 = 7.55
COc1cc(C)cc2cc(-c3cc(CNC(C)(C)CN4CCCC4)n4ncnc(N)c34)sc12 = 7.27
CCN[C@H]1CCN(Cc2cc(-c3cc4cc(C)cc(OC)c4s3)c3c(N)ncnn23)C1 = 7.81

Now for the compound whose pIC50 we want.
Query: Write down the reported pIC50 of "COc1cc(C)cc2cc(-c3cc(CN4CCC[C@H](N)C4)n4ncnc(N)c34)sc12" , test system: human FGFR-3 (Homo sapiens (Human)).
Reply: 7.65

====

molecular target: human FGFR-3 (Homo sapiens (Human)); assay: FGFR-3 kinase assay (TR-FRET); format: biochemical; details: 10 μM ATP, 15 min pre-incubation with enzyme
experimental_endpoint: pIC50
To interpret pIC50, take it as minus log10 of a concentration measured in moles per litre.

COc1cc(C)cc2cc(-c3cc(CN4CC[C@@H](O)C4)n4ncnc(N)c34)sc12 = 7.41

Query: // query pIC50 value for entry "CCNC(=O)COCc1cc(-c2cc3cc(C)cc(OC)c3s2)c2c(N)ncnn12"
Reply: 7.52

Query: Also, "COc1cc(C)cc2cc(-c3cc(CN4CC[C@@H](N(C)C)C4)n4ncnc(N)c34)sc12" please.
Reply: 7.52

Query: Same lookup for "COc1cc(C)cc2cc(-c3cc(CN4CCCN(CCO)CC4)n4ncnc(N)c34)sc12" , please.
Reply: 7.32

Query: Okay, and "COc1cc(C)cc2cc(-c3cc(COC[C@@H]4CCCN4)n4ncnc(N)c34)sc12" ?
Reply: 7.43

====

Catalogue of IC50 readings, one per entry.
biological target: UniProt:P11362; assay: FGFR-1 high ATP kinase assay (TR-FRET)
Entry rule: numbers only, all in nM.

As a guide, the following entries are already answered.
COc1cc(C)cc2cc(-c3cc(CNC4CCN(C(C)C)CC4)n4ncnc(N)c34)sc12 [Example 80] = 93.4
COc1cc(C)cc2cc(-c3cc(CN4CC[C@@H](O)C4)n4ncnc(N)c34)sc12 [Example 84] = 38.9
COCCN(C)Cc1cc(-c2cc3cc(C)cc(OC)c3s2)c2c(N)ncnn12 [Example 76] = 83
COc1cc(C)cc2cc(-c3cc(CNC4CCCNC4=O)n4ncnc(N)c34)sc12 (centres unmarked) [Example 37] = 44.9
COc1cc(C)cc2cc(-c3cc(CN4CCCN(CCO)CC4)n4ncnc(N)c34)sc12 [Example 59] = 39.4

Query: State the recorded IC50 for this entry: COc1cc(C)cc2cc(-c3cc(C(=O)N4CCC(O)CC4)n4ncnc(N)c34)sc12 [Example 101]
Reply: 29.8

Query: Moving on to the next compound: COc1cc(C)cc2cc(-c3cc(CNCCNC(C)(C)C)n4ncnc(N)c34)sc12 [Example 34]
Reply: 99.3

====

target: UniProt P22607
pIC50: −log10 of the molar value.
Binary call on pIC50: TRUE from 7 upward, FALSE beneath that.

Completed entries (count: 4):
COc1cc(C)cc2cc(-c3cc(CN[C@@H](CC(N)=O)C(=O)O)n4ncnc(N)c34)sc12 = TRUE
COc1cc(C)cc2cc(-c3cc(CN4CCNC(=O)CC4)n4ncnc(N)c34)sc12 = TRUE
Nc1nccn2c(C3CCNCC3)nc(-c3cc4ccccc4[nH]3)c12 [WO 2007/061737 Example 25, reference compound] = FALSE
COc1cc(C)cc2cc(-c3cc(CN4CCNC(C(=O)N(C)C)C4)n4ncnc(N)c34)sc12 (stereo not drawn) = TRUE

Pending compound:
Query: Determine whether this compound has pIC50 no lower than 7: COc1cc(C)cc2cc(-c3cc(CN4CCCC(O)C4)n4ncnc(N)c34)sc12 (stereo not drawn)
Reply: TRUE

====

Entries with reported pIC50 on human FGFR-3 (Homo sapiens (Human), UniProt P22607)
Sequence (P22607 397-806): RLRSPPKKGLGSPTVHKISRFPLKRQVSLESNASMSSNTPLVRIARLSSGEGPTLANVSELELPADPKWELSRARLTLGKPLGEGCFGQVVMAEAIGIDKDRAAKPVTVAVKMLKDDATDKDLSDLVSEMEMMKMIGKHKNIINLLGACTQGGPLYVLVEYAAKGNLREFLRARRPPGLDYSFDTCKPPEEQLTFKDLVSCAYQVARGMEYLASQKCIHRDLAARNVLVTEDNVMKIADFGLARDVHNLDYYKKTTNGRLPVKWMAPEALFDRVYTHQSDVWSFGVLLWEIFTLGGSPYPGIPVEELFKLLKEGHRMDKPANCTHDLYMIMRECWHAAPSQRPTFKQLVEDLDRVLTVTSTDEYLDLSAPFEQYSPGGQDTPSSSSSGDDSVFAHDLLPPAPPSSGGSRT
Where a name gives a salt, the structure may show the parent alone.
// field semantics: pIC50 = negative decimal log of concentration (mol/L)

Reference set (2 entries):
Cc1c(-c2nc(C3CCN(C(=O)c4ccsc4)CC3)n3ccnc(N)c23)sc2ccccc12 [WO 2007/061737 Example 209, reference compound] = 6.10
COc1cc(C)cc2cc(-c3cc(CN4CC[C@H](N(C)C)C4)n4ncnc(N)c34)sc12 = 7.64

Query: Item under review: COc1cc(C)cc2cc(-c3cc(C(=O)NC4CCNC4=O)n4ncnc(N)c34)sc12 (racemic) [Example 98, hydrochloride] . Reported pIC50?
Reply: 7.88

====

target: human FGFR-1 (Homo sapiens); test: FGFR-1 high ATP kinase assay (TR-FRET)
Sequence (P11362 22-822 limits assumed): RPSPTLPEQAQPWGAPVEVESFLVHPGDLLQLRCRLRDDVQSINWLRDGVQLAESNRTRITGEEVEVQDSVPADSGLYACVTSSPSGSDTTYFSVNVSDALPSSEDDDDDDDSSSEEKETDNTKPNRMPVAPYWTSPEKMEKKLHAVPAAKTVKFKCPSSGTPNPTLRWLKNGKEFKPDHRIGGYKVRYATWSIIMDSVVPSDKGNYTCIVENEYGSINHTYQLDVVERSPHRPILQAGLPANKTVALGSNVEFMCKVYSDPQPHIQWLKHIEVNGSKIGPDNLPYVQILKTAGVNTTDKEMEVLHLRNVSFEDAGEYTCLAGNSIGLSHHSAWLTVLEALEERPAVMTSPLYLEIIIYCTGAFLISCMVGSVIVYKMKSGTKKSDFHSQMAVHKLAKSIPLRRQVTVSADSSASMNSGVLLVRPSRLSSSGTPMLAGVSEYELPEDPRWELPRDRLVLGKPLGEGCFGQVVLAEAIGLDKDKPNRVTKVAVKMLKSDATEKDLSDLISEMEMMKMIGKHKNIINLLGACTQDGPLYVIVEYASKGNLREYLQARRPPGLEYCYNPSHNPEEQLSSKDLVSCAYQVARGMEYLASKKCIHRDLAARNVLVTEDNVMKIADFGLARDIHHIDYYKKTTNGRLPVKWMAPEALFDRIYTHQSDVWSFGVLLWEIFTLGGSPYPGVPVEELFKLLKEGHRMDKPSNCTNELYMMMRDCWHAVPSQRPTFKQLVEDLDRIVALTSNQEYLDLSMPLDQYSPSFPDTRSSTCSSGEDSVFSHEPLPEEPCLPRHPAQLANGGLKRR
Where a name gives a salt, the structure may show the parent alone.
experimental_endpoint: pIC50
Please keep in mind that pIC50 is minus log10 of the molar concentration; only the number is needed.

COc1cc(C)cc2cc(-c3cc(CN4CCN(C(=O)C5CC5)CC4)n4ncnc(N)c34)sc12 = 7.17
COc1cc(C)cc2cc(-c3cc(CN(C)CCC(N)=O)n4ncnc(N)c34)sc12 = 7.27
COc1cc(C)cc2cc(-c3cc(CN4CCNC(c5cccs5)C4)n4ncnc(N)c34)sc12 (stereo not shown) = 7.79
COc1cc(Cl)cc2cc(-c3cc(CN4CCNCC4)n4ncnc(N)c34)sc12 [Example 4, trihydrochloride] = 7.46
COc1cc(C)cc2cc(-c3cc(COCCN(C)C)n4ncnc(N)c34)sc12 [Example 108, dihydrochloride] = 7.01

Query: Which pIC50 value is on record for COc1cc(C)cc2cc(-c3cc(CN4CCNC(C)C4)n4ncnc(N)c34)sc12 (stereo not shown) ?
Reply: 7.38

Query: Further, for CCN(CC)C1CCN(Cc2cc(-c3cc4cc(C)cc(OC)c4s3)c3c(N)ncnn23)C1 (stereo not shown) ?
Reply: 7.83

Query: Moving on to "COc1cc(C)cc2cc(-c3cc(CN4CC[C@@H](N)C4)n4ncnc(N)c34)sc12"
Reply: 7.03

====

molecular target: UniProtKB P11362; test: FGFR-1 high ATP kinase assay (TR-FRET)
experimental_endpoint: pIC50
// returns pIC50 (minus log10 of molar concentration), number only

Query: Value wanted: pIC50 (UniProtKB P11362) of entry "COc1cc(C)cc2cc(-c3cc(CO[C@@H]4CCNC4)n4ncnc(N)c34)sc12"
Reply: 7.58

====

biological target: human FGFR-1 (Homo sapiens); test: FGFR-1 high ATP kinase assay (TR-FRET)
experimental_endpoint: pIC50
# pIC50 = -log10(concentration in molar units)

Sample answers from the record:
CCCc1nccn1Cc1cc(-c2cc3cc(C)cc(OC)c3s2)c2c(N)ncnn12 = 7.48
COc1cc(C)cc2cc(-c3cc(COCCN4CCOC4=O)n4ncnc(N)c34)sc12 = 7.04
COc1cc(C)cc2cc(-c3cc(CN(C)CCCN(C)C)n4ncnc(N)c34)sc12 = 7.06
COc1cc(C)cc2cc(-c3cc(CN4CC(O)C4)n4ncnc(N)c34)sc12 = 7.43
COc1cc(C)cc2cc(-c3cc(COCC(C)N)n4ncnc(N)c34)sc12 (stereo not shown) = 7.57
COc1cc(C)cc2cc(-c3cc(C(=O)N4CCNC(C(N)=O)C4)n4ncnc(N)c34)sc12 (stereo not shown) = 7.31

Query: pIC50 for COc1cc(C)cc2cc(-c3cc(CN(C)C4CCS(=O)(=O)C4)n4ncnc(N)c34)sc12 (stereo not shown) ?
Reply: 7.17
